experiment: Stability investigation of crystal forms A, B, C, D and the amorphous form of the compound of formula (1) (related substances by HPLC, moisture, XRD, DSC); assay type: physicochemical; conditions: 25° C., RH 92.5%, closed, 10 days

{"Compound": "C[C@H]1CCN1c1nc(N2C[C@@H]3[C@@H](CC(=O)O)[C@@H]3C2)c2c(n1)C(F)(F)CC2 [Crystal form A]", "DSC": "170.42 °C"}
{"Compound": "C[C@H]1CCN1c1nc(N2C[C@@H]3[C@@H](CC(=O)O)[C@@H]3C2)c2c(n1)C(F)(F)CC2 [Crystal form B]", "DSC": "169.47 °C"}
{"Compound": "C[C@H]1CCN1c1nc(N2C[C@@H]3[C@@H](CC(=O)O)[C@@H]3C2)c2c(n1)C(F)(F)CC2 [Crystal form D]", "DSC": "167.46 °C"}
{"Compound": "C[C@H]1CCN1c1nc(N2C[C@@H]3[C@@H](CC(=O)O)[C@@H]3C2)c2c(n1)C(F)(F)CC2 [Crystal form C]", "DSC": "172.36 °C"}
